PROTOCOL_NOTES: Plasma concentrations of BVDU, BVU and GEM in patients of the dose finding study (HPLC)
Format: in vivo, human
RUN_PARAMETERS: both sexes, human, plasma, po, dose level 12000 mg; 9.0 hr; day 1; oral BVDU; read-out: BVDU plasma concentration, Mean
VALUE_KIND: concentration at 9 h
Could you kindly put the unit after your number?

Recall and state the measured concentration at 9 h for O=c1[nH]c(=O)n([C@H]2C[C@H](O)[C@@H](CO)O2)cc1/C=C/Br [BVDU, (E)-5-(2-bromovinyl)-2′-deoxyuridine] .
2340 ng/mL

---

PROTOCOL_NOTES: Plasma concentrations of BVDU, BVU and GEM in patients of the dose finding study (HPLC)
Assay type: in vivo, human
RUN_PARAMETERS: both sexes, human, plasma, po, dose level 12000 mg; 0.0 hr; day 1; oral BVDU; read-out: BVDU plasma concentration, patient
VALUE_KIND: concentration at 0 h (ng/mL)
Give the value, in units of ng/mL, as a plain number.

Recall and state the measured concentration at 0 h for O=c1[nH]c(=O)n([C@H]2C[C@H](O)[C@@H](CO)O2)cc1/C=C/Br [BVDU, (E)-5-(2-bromovinyl)-2′-deoxyuridine] .
0

---

PROTOCOL_NOTES: Plasma concentrations of BVDU, BVU and GEM in patients of the dose finding study (HPLC)
Format: in vivo, human
RUN_PARAMETERS: human, plasma, po, dose level 9000 mg; 9.0 hr; day 1; oral BVDU; read-out: BVDU plasma concentration, Median
VALUE_KIND: concentration at 9 h (ng/mL)
Give the value, in units of ng/mL, as a plain number.

Recall and state the measured concentration at 9 h for O=c1[nH]c(=O)n([C@H]2C[C@H](O)[C@@H](CO)O2)cc1/C=C/Br [BVDU, (E)-5-(2-bromovinyl)-2′-deoxyuridine] .
1630

---

PROTOCOL_NOTES: Plasma concentrations of BVDU, BVU and GEM in patients of the dose finding study (HPLC)
Assay type: in vivo, human
RUN_PARAMETERS: both sexes, human, plasma, po, dose level 6000 mg; 9.0 hr; day 1; oral BVDU; read-out: BVDU plasma concentration, Mean
VALUE_KIND: concentration at 9 hr (ng/mL)
Give the value, in units of ng/mL, as a plain number.

Recall and state the measured concentration at 9 hr for O=c1[nH]c(=O)n([C@H]2C[C@H](O)[C@@H](CO)O2)cc1/C=C/Br [BVDU, (E)-5-(2-bromovinyl)-2′-deoxyuridine] .
391

---

PROTOCOL_NOTES: Plasma concentrations of BVDU, BVU and GEM in patients of the dose finding study (HPLC)
Format: in vivo, human
RUN_PARAMETERS: both sexes, human, plasma, po, dose level 12000 mg; 1.5 hr; day 1; oral BVDU; read-out: BVDU plasma concentration, Median
VALUE_KIND: concentration at 1.5 h (ng/mL)
Give the value, in units of ng/mL, as a plain number.

Recall and state the measured concentration at 1.5 h for O=c1[nH]c(=O)n([C@H]2C[C@H](O)[C@@H](CO)O2)cc1/C=C/Br [BVDU, (E)-5-(2-bromovinyl)-2′-deoxyuridine] .
844

---

PROTOCOL_NOTES: Plasma concentrations of BVDU, BVU and GEM in patients of the dose finding study (HPLC)
Type: in vivo, human
RUN_PARAMETERS: both sexes, human, plasma, po, dose level 10500 mg; 3.0 hr; day 1; oral BVDU; read-out: BVDU plasma concentration, Mean
VALUE_KIND: concentration at 3 h (ng/mL)
Give the value, in units of ng/mL, as a plain number.

Recall and state the measured concentration at 3 h for O=c1[nH]c(=O)n([C@H]2C[C@H](O)[C@@H](CO)O2)cc1/C=C/Br [BVDU, (E)-5-(2-bromovinyl)-2′-deoxyuridine] .
453
